The entries below are paired with their reported induction of TNF-α protein.
Test system: PROb xenografts
Details: PROb xenografts, vector + IP agent vs vector alone; cisplatin 9, cyclophosphamide 160, doxorubicin 15, 5-FU 100, gemcitabine 500 mg/kg
Where a name gives a salt, the structure may show the parent alone.
Quantity measured: induction of TNF-α protein (fold)

compound="O=P1(N(CCCl)CCCl)NCCCO1 (stereo not shown) [cyclophosphamide, Cyclophosphamide]" recorded_value=3.0
compound="O=c1[nH]cc(F)c(=O)[nH]1 [5-FU, 5-fluorouracil]" recorded_value=1.9
compound="N.N.[Cl][Pt][Cl] [cisplatin]" recorded_value=2.6
compound="COc1cccc2c1C(=O)c1c(O)c3c(c(O)c1C2=O)C[C@@](O)(C(=O)CO)C[C@@H]3O[C@H]1C[C@H](N)[C@H](O)[C@H](C)O1 [doxorubicin, doxorubicin hydrochloride]" recorded_value=2.3

# credit: patent US8034791B2
